Give measured viability, T/C for each item. Keep answers brief.
Test system: 494315-158-R-J1-PDC complex spheroid growth, percent test/control;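 note: compound exposure lasted seven days after spheroids formed for three days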
method.summary: Anticancer human tumor 494315-158-R-J1-PDC patient-derived soft tissue sarcoma cell line growth inhibition [Asc]
measurement.setup: second compound 0.01 µM; first compound 0.0316 µM; stronger effect = lower value
Numbers only here, please. The scale is %.

Item C=CC(=O)N1CCN(c2nc(=O)n(-c3c(C)ccnc3C(C)C)c3nc(-c4c(O)cccc4F)c(F)cc23)C(C)C1 (centres undefined) + CNC(C)C(=O)NC1CN(S(=O)(=O)c2cccc(S(=O)(=O)N3CCC4CCC(C(=O)NC(c5ccccc5)c5ccccc5)N4C(=O)C(NC(=O)C(C)NC)C3)c2)CCC2CCC(C(=O)NC(c3ccccc3)c3ccccc3)N2C1=O has what recorded viability, T/C?
72.5

Same question for O=C(c1cc(Cc2n[nH]c(=O)c3ccccc23)ccc1F)N1CCN(C(=O)C2CC2)CC1 + CNC(C)C(=O)NC1CN(S(=O)(=O)c2cccc(S(=O)(=O)N3CCC4CCC(C(=O)NC(c5ccccc5)c5ccccc5)N4C(=O)C(NC(=O)C(C)NC)C3)c2)CCC2CCC(C(=O)NC(c3ccccc3)c3ccccc3)N2C1=O please.
66.3

Same question for CCN1CCN(Cc2ccc(Nc3ncc(F)c(-c4cc(F)c5nc(C)n(C(C)C)c5c4)n3)nc2)CC1 + CNC(C)C(=O)NC1CN(S(=O)(=O)c2cccc(S(=O)(=O)N3CCC4CCC(C(=O)NC(c5ccccc5)c5ccccc5)N4C(=O)C(NC(=O)C(C)NC)C3)c2)CCC2CCC(C(=O)NC(c3ccccc3)c3ccccc3)N2C1=O please.
67

Same question for Cn1ncnc1[C@H]1c2n[nH]c(=O)c3cc(F)cc(c23)N[C@@H]1c1ccc(F)cc1 + CNC(C)C(=O)NC1CN(S(=O)(=O)c2cccc(S(=O)(=O)N3CCC4CCC(C(=O)NC(c5ccccc5)c5ccccc5)N4C(=O)C(NC(=O)C(C)NC)C3)c2)CCC2CCC(C(=O)NC(c3ccccc3)c3ccccc3)N2C1=O please.
49.6

# credit: PubChem BioAssay AID1963420
